Known combination Emax of a selection of molecules
# System: NEC8 (Other Solid Carcinomas)
# assay.name: combination Emax (second highest fraction inhibited in the dose matrix, 72 h); higher = more inhibition; extreme values may be limits of the assay

molecule | combination Emax
COc1cc2ncnc(Nc3ccc(F)c(Cl)c3)c2cc1OCCCN1CCOCC1 [Gefitinib] + CC(C)n1c(=O)n(C)c2cnc3cc(F)c(-c4ccc(OCCCN5CCCCC5)nc4)cc3c21 [AZD1390] (first compound max 10 µM, 7x7, partner max 0.3 µM) | 0
NC1(C(=O)N[C@@H](CCO)c2ccc(Cl)cc2)CCN(c2ncnc3[nH]ccc23)CC1 [Capivasertib] + Cn1cnc2c(F)c(Nc3ccc(Br)cc3Cl)c(C(=O)NOCCO)cc21 [Selumetinib] (first compound max 10 µM, 7x7, partner max 10 µM) | 0.152

---

# Test system: UACC-62 (Melanoma);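 note: after 72 h of two-drug dosing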
# assay.name: Bliss excess, mean over the matrix (fraction); higher = more synergy
measured.endpoint: Bliss excess

compound | measured.number
COc1cccc(OCCCN)c1-c1cc(Nc2cnc(C#N)cn2)n[nH]1 [Prexasertib] + C[C@@H]1COCCN1C2=NC(=NC(=C2)C3(CC3)[S@](=N)(=O)C)C4=C5C=CNC5=NC=C4 [AZD6738] (first compound max 1 µM, 7x7, partner max 10 µM) | -0.0174
COc1cc2ncnc(Nc3ccc(F)c(Cl)c3)c2cc1OCCCN1CCOCC1 [Gefitinib] + CC(C)n1c(=O)n(C)c2cnc3cc(F)c(-c4ccc(OCCCN5CCCCC5)nc4)cc3c21 [AZD1390] (first compound max 10 µM, 7x7, partner max 0.3 µM) | -0.0358
N#Cc1cnc(Nc2cc(NC[C@H]3CNCCO3)c(C(F)(F)F)cn2)cn1 [SRA737] + CCc1c2c(nc3ccc(O)cc13)-c1cc3c(c(=O)n1C2)COC(=O)[C@]3(O)CC [SN-38] (first compound max 10 µM, 7x7, partner max 0.3 µM) | 0.0364
CCN(CCO)CCCOc1ccc2c(Nc3cc(CC(=O)Nc4cccc(F)c4)[nH]n3)ncnc2c1 [AZD2811] + C[C@@H]1COCCN1C2=NC(=NC(=C2)C3(CC3)[S@](=N)(=O)C)C4=C5C=CNC5=NC=C4 [AZD6738] (first compound max 1 µM, 7x7, partner max 10 µM) | -0.0338

---

# Test system: OSC-20 (Oral Cavity Carcinoma)
# assay.name: combination Emax (second highest fraction inhibited in the dose matrix, 72 h); higher = more inhibition; extreme values may be limits of the assay
Known combination Emax of a selection of compounds

compound | measured.on | combination Emax
CC1(C)CCC(CN2CCN(c3ccc(C(=O)NS(=O)(=O)c4ccc(NCC5CCOCC5)c([N+](=O)[O-])c4)c(Oc4cnc5[nH]ccc5c4)c3)CC2)=C(c2ccc(Cl)cc2)C1 [Venetoclax] + C[C@@H]1COCCN1C2=NC(=NC(=C2)C3(CC3)[S@](=N)(=O)C)C4=C5C=CNC5=NC=C4 [AZD6738] (first compound max 1 µM, 7x7, partner max 10 µM) | OSC-20 (Oral Cavity Carcinoma) | 0.425
CN(CCO)CC[C@H](CSc1ccccc1)Nc1ccc(S(=O)(=O)NC(=O)c2ccc(N3CCC([C@@H](O)c4ccccc4-c4ccc(Cl)cc4)CC3)cc2)cc1S(=O)(=O)C(F)(F)F [AZD4320] + C=CCn1c(=O)c2cnc(Nc3ccc(N4CCN(C)CC4)cc3)nc2n1-c1cccc(C(C)(C)O)n1 [AZD1775] (first compound max 1 µM, partner max 1 µM) | OSC-20 (Oral Cavity Carcinoma) | 0.119
C[C@@H](c1ccc2nccn2c1)n1nnc2ncc(-c3cnn(C)c3)nc21 [Savolitinib] + CC1(C)CCC(CN2CCN(c3ccc(C(=O)NS(=O)(=O)c4ccc(NCC5CCOCC5)c([N+](=O)[O-])c4)c(Oc4cnc5[nH]ccc5c4)c3)CC2)=C(c2ccc(Cl)cc2)C1 [Venetoclax] (first compound max 1 µM, 7x7, partner max 1 µM) | OSC-20 (Oral Cavity Carcinoma) | 0.149
NC1(C(=O)N[C@@H](CCO)c2ccc(Cl)cc2)CCN(c2ncnc3[nH]ccc23)CC1 [Capivasertib] + CC(C)n1c(=O)n(C)c2cnc3cc(F)c(-c4ccc(OCCCN5CCCCC5)nc4)cc3c21 [AZD1390] (first compound max 10 µM, 7x7, partner max 0.3 µM) | OSC-20 (Oral Cavity Carcinoma) | 0.256
COc1cc2c(cc1OCCCCCOc1cc3c(cc1OC)C(=O)N1C=C(C)C[C@H]1C=N3)N=C[C@@H]1CC(C)=CN1C2=O [SG3199] + O=C(c1cc(Cc2n[nH]c(=O)c3ccccc23)ccc1F)N1CCN(C(=O)C2CC2)CC1 [Olaparib] (first compound max 0.001 µM, 7x7, partner max 10 µM) | OSC-20 (Oral Cavity Carcinoma) | 0.145
Cc1cc2ncnn2cc1Nc1ncc2c(n1)n(C1CCOCC1)c(=O)n2C [AZD7648] + C[C@@H]1COCCN1C2=NC(=NC(=C2)C3(CC3)[S@](=N)(=O)C)C4=C5C=CNC5=NC=C4 [AZD6738] (first compound max 10 µM, 7x7, partner max 10 µM) | OSC-20 (Oral Cavity Carcinoma) | 0.41
COc1nnc2ccc(N3CCC(c4ccc(OCCN5CCN(C)C(=O)[C@H]5C)cc4)CC3)nn12 [AZD5153] + CCN(CCO)CCCOc1ccc2c(Nc3cc(CC(=O)Nc4cccc(F)c4)[nH]n3)ncnc2c1 [AZD2811] (first compound max 1 µM, 7x7, partner max 1 µM) | OSC-20 (Oral Cavity Carcinoma) | 0.261
CC1(C)CCC(CN2CCN(c3ccc(C(=O)NS(=O)(=O)c4ccc(NCC5CCOCC5)c([N+](=O)[O-])c4)c(Oc4cnc5[nH]ccc5c4)c3)CC2)=C(c2ccc(Cl)cc2)C1 [Venetoclax] + Cn1cnc2c(F)c(Nc3ccc(Br)cc3Cl)c(C(=O)NOCCO)cc21 [Selumetinib] (first compound max 1 µM, 7x7, partner max 3 µM) | OSC-20 (Oral Cavity Carcinoma) | 0.172
C=CCn1c(=O)c2cnc(Nc3ccc(N4CCN(C)CC4)cc3)nc2n1-c1cccc(C(C)(C)O)n1 [AZD1775] + O=C(c1cc(Cc2n[nH]c(=O)c3ccccc23)ccc1F)N1CCN(C(=O)C2CC2)CC1 [Olaparib] (first compound max 1 µM, partner max 10 µM) | OSC-20 (Oral Cavity Carcinoma) | 0.289
CC1(C)CCC(CN2CCN(c3ccc(C(=O)NS(=O)(=O)c4ccc(NCC5CCOCC5)c([N+](=O)[O-])c4)c(Oc4cnc5[nH]ccc5c4)c3)CC2)=C(c2ccc(Cl)cc2)C1 [Venetoclax] + C[C@@H](Nc1cc(F)cc(F)c1)c1cc(C(=O)N(C)C)cc2c(=O)cc(N3CCOCC3)oc12 [AZD8186] (first compound max 1 µM, 7x7, partner max 3 µM) | OSC-20 (Oral Cavity Carcinoma) | 0.128
CC1(C)CCC(CN2CCN(c3ccc(C(=O)NS(=O)(=O)c4ccc(NCC5CCOCC5)c([N+](=O)[O-])c4)c(Oc4cnc5[nH]ccc5c4)c3)CC2)=C(c2ccc(Cl)cc2)C1 [Venetoclax] + C1CN(CCC1(C(=O)N[C@@H](CCO)C2=CC=C(C=C2)Cl)N)C3=NC=NC4=C3C=CN4 [Capivasertib] (first compound max 1 µM, 7x7, partner max 3 µM) | OSC-20 (Oral Cavity Carcinoma) | 0.265
CS(=O)(=O)CCNCc1ccc(-c2ccc3ncnc(Nc4ccc(OCc5cccc(F)c5)c(Cl)c4)c3c2)o1 [Lapatinib] + C[C@@H](Oc1cc(-c2cnn(C3CCNCC3)c2)cnc1N)c1c(Cl)ccc(F)c1Cl [Crizotinib] (first compound max 10 µM, 7x7, partner max 10 µM) | OSC-20 (Oral Cavity Carcinoma) | 0.795
